# ASSAYED_SYSTEM: Cytochrome P450 2D6 (Homo sapiens) (UniProt P10635)
# Sequence (P10635 whole entry, looked up): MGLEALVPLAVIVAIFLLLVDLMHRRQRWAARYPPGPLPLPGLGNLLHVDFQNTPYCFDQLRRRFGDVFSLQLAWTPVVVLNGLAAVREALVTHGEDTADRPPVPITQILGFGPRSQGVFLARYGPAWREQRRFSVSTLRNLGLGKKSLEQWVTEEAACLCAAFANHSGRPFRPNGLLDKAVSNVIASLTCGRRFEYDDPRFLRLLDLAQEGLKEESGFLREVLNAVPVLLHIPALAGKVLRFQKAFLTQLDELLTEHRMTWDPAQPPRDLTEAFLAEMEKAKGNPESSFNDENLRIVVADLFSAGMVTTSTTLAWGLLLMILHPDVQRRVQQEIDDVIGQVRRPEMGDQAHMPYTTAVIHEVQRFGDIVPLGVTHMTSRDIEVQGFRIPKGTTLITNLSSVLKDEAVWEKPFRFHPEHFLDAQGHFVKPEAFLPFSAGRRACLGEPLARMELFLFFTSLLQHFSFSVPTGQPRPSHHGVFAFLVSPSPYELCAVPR
# TEST_DESCRIPTION: Cytochrome panel assay with activity outcomes
# MEASUREMENT_SETUP: recombinant CYP, pro-luciferin dealkylation, luminescence, p450-cyp2d6; series mostly up to 57.1 µM
The whole screen tested about 16,000 compounds, of which about 2,600 (16%) were called active. Roughly 20% stayed inconclusive and do not appear here. Calls come from the whole dose curve; as a rule, active = well fitted curve in the direction sought with a large enough effect; inconclusive = small, poorly fitted or top-dose-only effect, or effect the other way; inactive = no such curve, though single readings can be large or run the other way. A selection follows.
Respond with a class label; see active, inactive

Please review the entries below; each comes with its answer.
Cc1ccsc1-c1nc(-c2ccccc2)c(-c2ccccc2)[nH]1 = inactive
CSc1nc(-c2ccc(C)cc2)nc(C(Cl)Cl)n1 = inactive
CCCC[C@H](CC)CN=C(N)NC(N)=NCCCCCCN=C(N)NC(N)=NC[C@@H](CC)CCCC = active
COc1ccc(Oc2ncc3nc(C)c(=O)n(C)c3n2)cc1 = inactive
CCn1c(CC(=O)Nc2ccc(C)cc2)nnc1SCC(=O)Nc1nc(C)cs1 = inactive
Clc1ccc(CN2CCCN(Cc3ccc(Cl)cc3)C2c2cc3ccccc3c3ccccc23)cc1 = active
COc1cc(OC)cc(C(=O)NCC(=O)OC2CCOC2=O)c1 (stereo not given) = inactive
c1ccc(-c2n[nH]c(-c3ccccc3)c2-c2nc3ccccc3[nH]2)cc1 = inactive
CCOC(=O)C(NC(=O)CC)(Nc1sc2c(c1C(=O)OC)CCN(C)C2)C(F)(F)F (stereo not given) = inactive

Next:
// outcome(item) with item = Oc1ccc(-c2nc(-c3ccc(F)cc3)c(-c3ccncc3)[nH]2)cc1
active

---

# ASSAYED_SYSTEM: Cytochrome P450 2D6 (Homo sapiens) (UniProt P10635)
# TEST_DESCRIPTION: Cytochrome panel assay with activity outcomes
# MEASUREMENT_SETUP: recombinant CYP, pro-luciferin dealkylation, luminescence, p450-cyp2d6; series mostly up to 57.1 µM
About 2,600 (16%) of roughly 16,000 compounds were called active. Inconclusive results (about 20%) are left out. Not all results are given here.
QUANTITY: AC50

Known results for molecules:
CCN(CC(=O)Nc1ccc(N2CCOCC2)cc1)Cc1nc2ccccc2c(=O)[nH]1 = inactive
CCN(CC)C(=O)Cn1cc(/C=C(\C#N)C(=O)N2CCN(c3ccccc3)CC2)c2ccccc21 = inactive
N#CCCn1c(=O)c(-c2ccc(Cl)cc2)nc2cnc(Oc3cccc(Cl)c3)nc21 = inactive
COc1ccc(C(=O)N2CCC[C@@]3(CCN(Cc4cc(C(F)(F)F)cc(C(F)(F)F)c4)C3)C2)cc1 = inactive
Cc1ccc(Nc2nc(-c3c(C)nc4ncccn34)cs2)cc1 = 12.6 µM (active)

Consider the molecule shown here: CN(C)c1ccccc1CN1CCCN(Cc2ccccc2N(C)C)C1c1ccncc1 What is its recorded AC50?
1.26 µM (active)

Entry under review: O=[N+]([O-])c1cccc(/C(=N/N=C/c2ccccc2Br)C23CN4CN(CN(C4)C2)C3)c1 . Reported AC50?
inactive

Please look up its AC50: COc1cc(C)ccc1OCCOc1cc(C)ccc1Cl
inactive

Query: AC50; subject: Cn1cccc1C(=O)N1CCC[C@@]2(CCN(c3ccncc3)C2)C1
inactive

---

# ASSAYED_SYSTEM: Cytochrome P450 2D6 (Homo sapiens) (UniProt P10635)
# TEST_DESCRIPTION: Cytochrome panel assay with activity outcomes
# MEASUREMENT_SETUP: recombinant CYP, pro-luciferin dealkylation, luminescence, p450-cyp2d6; series mostly up to 57.1 µM
In all, about 16,000 compounds went through this assay and about 2,600 (16%) were called active. Another 20% or so got no clear call; they are omitted. The call rests on the fitted dose curve; in most records, active means well fitted curve in the direction sought with a large enough effect; inconclusive means small, poorly fitted or top-dose-only effect, or effect the other way; inactive means no such curve, though single readings can be large or run the other way. The list is a sample of the results.
Log the outcome using a class from Y (active), N (inactive)

Check out these entries, answers already filled in.
COc1ccc(CNc2ncnc3ccc(-c4cccnc4)cc23)c(OC)c1 = Y
O=c1c(-c2ccccc2)nc2cnc(N3CCOCC3)nc2n1CCc1ccccc1 = N

Hi team, can someone confirm the assay call for O=C1NC(O)=NC1(c1ccccc1)c1ccccc1 ?
N

For this compound, state the assay outcome: N#Cc1ccc(-c2ccccc2)nc1SCC(=O)c1cccc(Cl)c1
N

Called result for COc1ccc(-c2nc3cnc(N4CCNCC4)nc3n(C3CC3)c2=O)cc1
N
